target: μ opioid receptor (MOR) (Homo sapiens); construct: expressed in transfected cells; assay: cell-based; format: cell-based; details: Series 2 EC50
Sequence (P35372 whole entry): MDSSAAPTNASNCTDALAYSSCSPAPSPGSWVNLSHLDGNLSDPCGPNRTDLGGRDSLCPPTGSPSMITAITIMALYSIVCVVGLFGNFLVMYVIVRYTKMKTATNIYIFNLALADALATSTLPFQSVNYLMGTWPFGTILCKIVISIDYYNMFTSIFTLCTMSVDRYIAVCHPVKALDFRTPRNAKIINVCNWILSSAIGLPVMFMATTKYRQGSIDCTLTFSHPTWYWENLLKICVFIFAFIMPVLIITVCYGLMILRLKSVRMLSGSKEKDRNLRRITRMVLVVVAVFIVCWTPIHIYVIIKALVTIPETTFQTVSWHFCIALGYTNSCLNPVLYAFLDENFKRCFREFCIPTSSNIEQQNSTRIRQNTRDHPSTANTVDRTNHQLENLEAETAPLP
Exercise: for every item that follows, state its recorded pEC50.
Give bare numbers, as −log10 of the molar value.

COC(=O)[C@@H]1C=C(OC(=O)c2cccc(C)c2)C(=O)[C@H]2[C@@]1(C)CC[C@H]1C(=O)O[C@H](c3ccoc3)C[C@]21C 6.80
COC(=O)[C@@H]1C=C(OC(=O)c2ccccn2)C(=O)[C@H]2[C@@]1(C)CC[C@H]1C(=O)O[C@H](c3ccoc3)C[C@]21C 6.39
COC(=O)[C@@H]1C=C(OC(=O)c2ccncc2)C(=O)[C@H]2[C@@]1(C)CC[C@H]1C(=O)O[C@H](c3ccoc3)C[C@]21C 8.22
COC(=O)[C@@H]1C=C(OC(=O)c2ccccc2F)C(=O)[C@H]2[C@@]1(C)CC[C@H]1C(=O)O[C@H](c3ccoc3)C[C@]21C 8.33

Record pEC50 per entry; entries follow.
1. COC(=O)[C@@H]1C=C(OC(=O)c2ccc(Cl)cc2)C(=O)[C@H]2[C@@]1(C)CC[C@H]1C(=O)O[C@H](c3ccoc3)C[C@]21C
2. COC(=O)[C@@H]1C=C(OC(=O)c2cc3ccccc3o2)C(=O)[C@H]2[C@@]1(C)CC[C@H]1C(=O)O[C@H](c3ccoc3)C[C@]21C

## Output
1. 7.54
2. 7.51

Record pEC50 per entry; entries follow.
1. COC(=O)[C@@H]1C=C(OC(=O)c2ccsc2)C(=O)[C@H]2[C@@]1(C)CC[C@H]1C(=O)O[C@H](c3ccoc3)C[C@]21C
2. COC(=O)[C@@H]1C=C(OC(=O)c2cccc(F)c2)C(=O)[C@H]2[C@@]1(C)CC[C@H]1C(=O)O[C@H](c3ccoc3)C[C@]21C
3. COC(=O)[C@@H]1C=C(OC(=O)c2ccc(F)cc2)C(=O)[C@H]2[C@@]1(C)CC[C@H]1C(=O)O[C@H](c3ccoc3)C[C@]21C
4. COC(=O)[C@@H]1C=C(OC(=O)c2ccccc2[N+](=O)[O-])C(=O)[C@H]2[C@@]1(C)CC[C@H]1C(=O)O[C@H](c3ccoc3)C[C@]21C
5. COC(=O)[C@@H]1C=C(OC(=O)c2cccc(Cl)c2)C(=O)[C@H]2[C@@]1(C)CC[C@H]1C(=O)O[C@H](c3ccoc3)C[C@]21C

## Output
1: 8.89; 2: 7.82; 3: 8.30; 4: 5.72; 5: 6.60
